# TGT: T1, soluble human CD3 epsilon chain (human, UniProt P07766 23-126)
# T1 construct: also called CD3ε
# PROTOCOL TEXT: SPR
READOUT LABEL: pKd
pKd is a log-scale quantity: -log10 of the concentration expressed in molar.

Sample answers from the record:
Entry CE115HA121-E22Hh/-Hi-Kn010G3/L0000-k0 (antibody, V domains shown, one-arm) VH: QVQLVESGGGVVQPGRSLRLSCAASGFTFSNAWMHWVRQAPGKGLEWVALIKAKSNNYATYYAESVKGRFTISRDDSKNSLYLQMNSLKTEDTAVYYCRYVHYGAYYGVDAWGQGTTVTVSS VL: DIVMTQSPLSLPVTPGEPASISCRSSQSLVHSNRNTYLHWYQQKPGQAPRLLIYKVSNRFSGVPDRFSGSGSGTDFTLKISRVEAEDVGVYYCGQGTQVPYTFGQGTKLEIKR — recorded pKd = 7.17

Entry TR01H072-E22Hh/none-Hi-Kn010G3/L0000-k0 (antibody, V domains shown, one-arm) VH: QVQLVESGGGLVQPGRSLRLSCAASGFTFSNAWMHWVRQAPGKGLEWVAQIKDKSQNYATYYAESVKGRFTISRADSKNSIYLQMNSLKTEDTAVYYCRYVHYAASYGVDIWGQGTTVTVSS VL: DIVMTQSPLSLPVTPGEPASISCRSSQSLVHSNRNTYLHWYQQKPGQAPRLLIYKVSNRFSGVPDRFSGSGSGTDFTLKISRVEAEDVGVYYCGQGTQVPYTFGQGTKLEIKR — recorded pKd = 7.69

Turning to the following binder.
Entry TR01H092-E22Hh/none-Hi-Kn010G3/L0011-k0 (antibody, V domains shown, one-arm) VH: QVQLVESGGGLVQPGRSLRLSCAASGFTFSNAWMHWVRQAPGKGLEWVAQIKDKSQNYATYYAESVAGRFTISRDDSKNSLYLQMNSLKTEDTAVYYCRYVHYAAGYGVDAWGQGTTVTVSS VL: DIVMTQSPLSLPVTPGEPASISCRSSQPLVHSNRNTYLHWYQQKPGQAPRLLIYKVSNRFSGVPDRFSGSGSGTDFTLKISRVEAEDVGVYYCGQGTQVPYTFGQGTKLEIKR — recorded pKd = 7.14
